B1: MFF (parent)
chain: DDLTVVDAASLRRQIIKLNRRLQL

- Variants of: B1
- PROTOCOL DETAILS: protein stability index of a GFP-peptide fusion (GPS, HEK-293T) (PSI 1-6); higher = more stable;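 note: lentivirally expressed fusions sorted by FACS into six bins by GFP to DsRed ratio, PSI derived from sequencing read proportions per bin multiplied by bin number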
- CONDITION CONTEXT: c terminus: a fixed tail appended
ENDPOINT LABEL: protein stability index
Answer field: number only, no words.

Some variants with recorded protein stability index:
DDLTVVDAASLRRQGIKLNRRLQL [I15G]; 3
DDLTVVDAASLRRQIIKLNRCLQL [R21C]; 1.95
DDLTVVDAASLYRQIIKLNRRLQL [R12Y]; 1.9
DDLTVVDARSLRRQIIKLNRRLQL [A9R]; 4.18
DPLTVVDAASLRRQIIKLNRRLQL [D2P]; 2.45

Switching to the query record.
Would you kindly share the measured protein stability index for DDLTVVDAACLRRQIIKLNRRLQL [S10C] ?
1.48
